Measured abundance fitness, listed per entry for reference.
B1: POU domain, class 2, transcription factor 2, residues 200 to 269; numbered along this chain, P09086 (parent)
chain: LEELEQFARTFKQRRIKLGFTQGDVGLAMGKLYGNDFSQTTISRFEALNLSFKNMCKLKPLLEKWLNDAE

Variants of: B1
Assay: abundance fitness (aPCA) (normalised: wild type 0, dead -1); higher = more abundant; growth selection in yeast, the domain comes from the species named
Conditions: Homo sapiens

Residue codes | abundance fitness
LEELFQFARTFKQRRIKLGFTQGDVGLAMGKLYGNDFSQTTISRFEALNLSFKNMCKLKPLLEKWLNDAE [E5F] | -0.214
LEELEQFARTFKQRRAKLGFTQGDVGLAMGKLYGNDFSQTTISRFEALNLSFKNMCKLKPLLEKWLNDAE [I16A] | -0.085
LEELEQFARTFKQRRIKLGFTQGDVGLAMGKLYGNDFSQTTISRFEALNSSFKNMCKLKPLLEKWLNDAE [L50S] | -0.155
LEELEQFARTFKQRRIKLGFTQGDVGLAMGKLYGNDFSQTTISRFEALNLSFKNMCKLKTLLEKWLNDAE [P60T] | -0.06
LEELWQFARTFKQRRIKLGFTQGDVGLAMGKLYGNDFSQTTISRFEALNLSFKNMCKLKPLLEKWLNDAE [E5W] | -0.073
LEELEQFARTFKQRRIKLGFTQGDVGLAMGKLYGNDFSQTTISRFEALNLSFKNMCKLKPLVEKWLNDAE [L62V] | -0.043
LEELEQFARTFKQRRIKLGFTQGDVGLAMGDLYGNDFSQTTISRFEALNLSFKNMCKLKPLLEKWLNDAE [K31D] | -0.114
LEELEQFARTFKQRRIKLGFTQGDVGLAMGKLYGNDFSQTTISRFEALNLSFKNMCKLKPLLEKWLNDDE [A69D] | -0.233
LEELEQFARTFKQRRIKLGFTQGDVGLAMGKLYGNDFSQTTISRFEALNLSFKNMCKLKPLLEKWLNDAN [E70N] | -0.066
LEELEQFARTFKQRRIKLGFTQGDVGLAMGKLYGNDFSQTTISRFEALNLAFKNMCKLKPLLEKWLNDAE [S51A] | -0.117
LEELEQFARTFKQRRIKLGFTQGDVGLAMGKLYGNDFSQTTISRFEALNLSFKNMCDLKPLLEKWLNDAE [K57D] | -0.47
LEELEQFARTFKQRRIKLGFTQGDVGLAMGKLYGNDFSQTTISRFEALNLSFKNHCKLKPLLEKWLNDAE [M55H] | -0.164
LEELEQFARTFKQRQIKLGFTQGDVGLAMGKLYGNDFSQTTISRFEALNLSFKNMCKLKPLLEKWLNDAE [R15Q] | -1.04
LEELEQFARTFKQRRIKLGFTQGDVGLAMGKLYGNDFSQTTISRFETLNLSFKNMCKLKPLLEKWLNDAE [A47T] | 0.017
LEELEHFARTFKQRRIKLGFTQGDVGLAMGKLYGNDFSQTTISRFEALNLSFKNMCKLKPLLEKWLNDAE [Q6H] | -0.236
LEELEQFARTFKQRRIKLGFTQGDVGLAMGKLHGNDFSQTTISRFEALNLSFKNMCKLKPLLEKWLNDAE [Y33H] | -0.01
LEELEQFARTFKQDRIKLGFTQGDVGLAMGKLYGNDFSQTTISRFEALNLSFKNMCKLKPLLEKWLNDAE [R14D] | -0.327
LEELEQFARTFKQRRIKLGFTQGDVGLAMGKLYGNDFSQTTISRFEALNLSFKNMCKLKPLLEKWPNDAE [L66P] | -0.719
LEELEQFARTFKQRRIKLGVTQGDVGLAMGKLYGNDFSQTTISRFEALNLSFKNMCKLKPLLEKWLNDAE [F20V] | -0.13
LEEAEQFARTFKQRRIKLGFTQGDVGLAMGKLYGNDFSQTTISRFEALNLSFKNMCKLKPLLEKWLNDAE [L4A] | -0.181
LEELEQFARTFKQRRIKLGFMQGDVGLAMGKLYGNDFSQTTISRFEALNLSFKNMCKLKPLLEKWLNDAE [T21M] | -0.26
LEELEQFARTVKQRRIKLGFTQGDVGLAMGKLYGNDFSQTTISRFEALNLSFKNMCKLKPLLEKWLNDAE [F11V] | -0.239
